Data origin: PubChem BioAssay

Listing: composite z-score of selected compounds
Tested on: Human papillomavirus type 1a E7 protein (residues 1-88)
Test: HPV1a E7 small-molecule binders, primary screen, biochemical, small-molecule microarray, residues 1-88, 635 nm (AID 1129)
Conditions: small-molecule microarray binding, fluorescence 635 nm; higher = more signal
readout type: composite z-score

> print(dat)
                                   compound       readout.type  experimental.value
1  COc1cccc([C@H](O)Cn2cc(-c3ccc(CON=C(C)C)cc3)nn2)c1  composite z-score               -1.15
2  C[C@H]1CC[C@@H](C(=O)O)N[C@@H]1c1ccc(C#Cc2ccccc2)cc1  composite z-score                1.06
3  CC(C)=NOC(C)CN1CCCCc2nc(C)c(C)cc21 (stereo not given)  composite z-score              -0.368
4  COC(=O)[C@H](C)NC(=O)CCC1CC(OC(=O)NCc2cccc3ccccc23)CC2(CCCC(COC(=O)NCCOc3ccccc3)O2)O1 (stereo not given in full)  composite z-score                1.12
5            CON=C(C)CCN1CCCc2nc(C)c(C)cc21  composite z-score               0.476
